Catalogue of IC50 readings, one per entry.
- System: Tyrosine-protein phosphatase non-receptor type 1 (Homo sapiens)
- Sequence (P18031 whole entry): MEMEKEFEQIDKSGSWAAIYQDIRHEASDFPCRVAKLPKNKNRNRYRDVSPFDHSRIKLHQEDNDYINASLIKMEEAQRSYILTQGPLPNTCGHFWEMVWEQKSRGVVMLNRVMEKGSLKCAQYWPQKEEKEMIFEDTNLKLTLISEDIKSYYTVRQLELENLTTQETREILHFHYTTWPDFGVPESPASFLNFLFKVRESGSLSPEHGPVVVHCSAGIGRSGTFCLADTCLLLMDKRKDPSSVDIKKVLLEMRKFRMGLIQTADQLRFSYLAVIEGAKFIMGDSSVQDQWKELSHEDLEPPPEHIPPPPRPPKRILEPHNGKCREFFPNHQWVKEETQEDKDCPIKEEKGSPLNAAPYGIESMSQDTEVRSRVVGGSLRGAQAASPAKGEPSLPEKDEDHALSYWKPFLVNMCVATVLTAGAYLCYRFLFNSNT

Tell me the measured IC50 of C[C@H](CCC(=O)O)[C@H]1CC[C@H]2[C@@H]3CC=C4C(C)(C)c5c(cnn5-c5ccccc5)C[C@]4(C)[C@H]3CC[C@]12C , please.
1.62 µM

More entries:
Sample C[C@H](CCC(=O)O)[C@H]1CC[C@H]2[C@@H]3CC=C4C(C)(C)c5ncncc5C[C@]4(C)[C@H]3CC[C@]12C — what was its IC50?
11.6 µM

Given the entry C[C@H](CCC(=O)O)[C@H]1CC[C@H]2[C@@H]3CC[C@@H]4C[C@H](O)CC[C@]4(C)[C@H]3CC[C@]12C [LITHOCHOLIC ACID] , report its measured IC50.
12.7 µM

* * *

Target protein (sequence): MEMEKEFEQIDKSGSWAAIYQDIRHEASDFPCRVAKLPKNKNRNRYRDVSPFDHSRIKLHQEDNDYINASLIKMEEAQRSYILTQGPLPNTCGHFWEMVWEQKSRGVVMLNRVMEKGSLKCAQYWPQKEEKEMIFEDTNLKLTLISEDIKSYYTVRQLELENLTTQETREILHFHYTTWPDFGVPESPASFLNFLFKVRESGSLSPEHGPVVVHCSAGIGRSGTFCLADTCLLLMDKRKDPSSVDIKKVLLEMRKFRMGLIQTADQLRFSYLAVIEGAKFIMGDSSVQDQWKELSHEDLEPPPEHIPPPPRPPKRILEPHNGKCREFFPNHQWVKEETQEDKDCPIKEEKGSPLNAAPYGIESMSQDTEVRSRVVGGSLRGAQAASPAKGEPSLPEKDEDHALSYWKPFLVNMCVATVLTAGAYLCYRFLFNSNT
Measure name: Ki (nM)
Please state the figure in nM; there is no need to write the unit.

I would be grateful if you could share the reported Ki for C[C@H](CCC(=O)O)[C@H]1CC[C@H]2[C@@H]3CC=C4C(C)(C)c5c(cnn5-c5ccccc5)C[C@]4(C)[C@H]3CC[C@]12C .
840

* * *

Let's look at some compounds and their measured pIC50.
- System: UniProt:P17706
- Sequence (P17706 whole entry): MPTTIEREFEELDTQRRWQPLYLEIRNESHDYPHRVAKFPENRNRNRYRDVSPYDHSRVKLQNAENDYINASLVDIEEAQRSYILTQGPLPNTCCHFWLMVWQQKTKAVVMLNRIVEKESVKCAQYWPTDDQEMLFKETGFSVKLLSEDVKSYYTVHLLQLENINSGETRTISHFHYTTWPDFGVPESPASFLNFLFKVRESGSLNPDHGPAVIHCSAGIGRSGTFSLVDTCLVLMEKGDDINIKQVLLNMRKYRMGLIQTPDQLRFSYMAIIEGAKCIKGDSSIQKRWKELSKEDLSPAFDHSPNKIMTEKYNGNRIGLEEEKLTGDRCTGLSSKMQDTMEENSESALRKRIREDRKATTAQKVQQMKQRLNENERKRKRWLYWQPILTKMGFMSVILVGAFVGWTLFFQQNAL
Here pIC50 is given on a logarithmic scale as minus log10 of the concentration in mol/L.

Looking for the measured pIC50 of C[C@H](CCC(=O)O)[C@H]1CC[C@H]2[C@@H]3CC=C4C(C)(C)c5nc(N)ncc5C[C@]4(C)[C@H]3CC[C@]12C , can you help?
4.77

Recorded pIC50 for C[C@H](CCC(=O)O)[C@H]1CC[C@H]2[C@@H]3CC=C4C(C)(C)c5nc(N)sc5C[C@]4(C)[C@H]3CC[C@]12C , please?
4.96

Turning to the following compound.
GET /values?readout=pIC50&item= C[C@H](CCC(=O)O)[C@H]1CC[C@H]2[C@@H]3CC[C@@H]4C[C@H](O)CC[C@]4(C)[C@H]3CC[C@]12C
4.69
